# experimental_protocol: Clearance in iv dosed CD-1 mouse measured up to 24 hrs by LC-MS/MS analysis
# Assay type: ADME, organism-based
# details: in vivo
quantity_kind: clearance (mL/min/kg)

- molecule_smiles: "CCNc1cc(F)cc2c1[nH]c1ncc(-c3cnc(OC)nc3)c(-n3cc(CN)c(C(F)(F)F)n3)c12"
  unit_text: "mL/min/kg"
  numeric_value: 48
- molecule_smiles: "CCNc1cc(F)cc2c1[nH]c1ncc(-c3cncc(C#N)c3)c(-n3cc(CN)c(C(F)(F)F)n3)c12"
  unit_text: "mL/min/kg"
  numeric_value: 50
- molecule_smiles: "CCNc1cc(F)cc2c1[nH]c1ncc(-c3cnc(OC)nc3)c(-n3ncc4c3CNC4)c12"
  unit_text: "mL/min/kg"
  numeric_value: 51
